Kindly supply the reported viability at 24 h, 0.1 µM values for the records listed here.
Test: Cytotoxicity against mouse NIH/3T3 cells assessed as cell survival at 100 nM after 24 hrs by MTT assay
Assay type: cell-based, NIH3T3
Conditions: read-out: Activity
Report only the number, with the unit % understood.

Q: Reported viability at 24 h, 0.1 µM, compound Oc1ccc(/C=N/Nc2ccc(C(F)(F)F)cn2)c(O)c1 : ____
Result: 67

Q: Reported viability at 24 h, 0.1 µM, compound C=C/C(C)=C/[C@@]1(C)SC(=O)C(C)=C1O [THIOLACTOMYCIN] : ____
Result: 85

----------
Test system: Enterococcus faecium
Experiment: Antimicrobial activity against vancomycin-resistant Enterococcus faecium clinical isolate after 20 hrs by 2 fold serial broth dilution method
Format: functional
assay-readout: MIC

Q: Reported MIC, compound Cc1nc(CC(=O)c2c(C)cc(O)cc2O)cs1 : ____
Result: > 512 µg/mL

Q: Reported MIC, compound Oc1ccc(/C=N/Nc2ccc(C(F)(F)F)cn2)c(O)c1 : ____
Result: 32 µg/mL

Q: Reported MIC, compound Nc1ccc(NC(=O)NC2CCCCC2)cc1[N+](=O)[O-] : ____
Result: 256 µg/mL

Q: Reported MIC, compound Cc1nc2ccccc2c(=O)n1/N=C/c1ccc(O)cc1O : ____
Result: > 512 µg/mL

Q: Reported MIC, compound Cc1n[nH]c(C)c1CCC(=O)N/N=C/c1ccc(O)cc1O : ____
Result: > 512 µg/mL

Q: Reported MIC, compound CCOC(=O)/C(C#N)=C/c1ccc(O)cc1O : ____
Result: > 512 µg/mL

----------
Kindly supply the reported log10 of MIC values for the records listed here.
System: Enterococcus faecalis
Assay: Antimicrobial activity against Enterococcus faecalis KCTC 2011 after 20 hrs by 2 fold serial broth dilution method
Type: functional
Conditions: KCTC 2011, 20 h
Parameter value (number): base-10 log of MIC in µg/mL.

Q: Reported log10 of MIC, compound NC(=O)C1(C(N)=O)OC1c1ccc(Cl)c(Cl)c1 (configuration not stated) : ____
Result: 2.41

Q: Reported log10 of MIC, compound O=C(N/N=C/c1ccc(O)c(O)c1O)c1ccc(Cl)cc1Cl : ____
Result: 1.51

Q: Reported log10 of MIC, compound O=[N+]([O-])c1ccccc1N/N=C/c1ccc(O)c(O)c1 : ____
Result: 2.41

Q: Reported log10 of MIC, compound Oc1ccc(/C=N/Nc2ccc(C(F)(F)F)cn2)c(O)c1 : ____
Result: 1.81

Q: Reported log10 of MIC, compound CCOC(=O)/C(C#N)=C/c1ccc(O)cc1O : ____
Result: 2.41

Q: Reported log10 of MIC, compound Nc1ccc(NC(=O)NC2CCCCC2)cc1[N+](=O)[O-] : ____
Result: 2.11

Q: Reported log10 of MIC, compound Oc1ccc(/C=N/c2cc(Cl)cc(Cl)c2)c(O)c1 : ____
Result: 2.71
